- Assay System: T1, human CDH6 with EC4 removed, on HEK293T cells (HEK293T-hCDH6-EC4 deletion) (human, UniProt P55285 54-790)
- T1 construct: Signal peptide not removed here
- T1 sequence: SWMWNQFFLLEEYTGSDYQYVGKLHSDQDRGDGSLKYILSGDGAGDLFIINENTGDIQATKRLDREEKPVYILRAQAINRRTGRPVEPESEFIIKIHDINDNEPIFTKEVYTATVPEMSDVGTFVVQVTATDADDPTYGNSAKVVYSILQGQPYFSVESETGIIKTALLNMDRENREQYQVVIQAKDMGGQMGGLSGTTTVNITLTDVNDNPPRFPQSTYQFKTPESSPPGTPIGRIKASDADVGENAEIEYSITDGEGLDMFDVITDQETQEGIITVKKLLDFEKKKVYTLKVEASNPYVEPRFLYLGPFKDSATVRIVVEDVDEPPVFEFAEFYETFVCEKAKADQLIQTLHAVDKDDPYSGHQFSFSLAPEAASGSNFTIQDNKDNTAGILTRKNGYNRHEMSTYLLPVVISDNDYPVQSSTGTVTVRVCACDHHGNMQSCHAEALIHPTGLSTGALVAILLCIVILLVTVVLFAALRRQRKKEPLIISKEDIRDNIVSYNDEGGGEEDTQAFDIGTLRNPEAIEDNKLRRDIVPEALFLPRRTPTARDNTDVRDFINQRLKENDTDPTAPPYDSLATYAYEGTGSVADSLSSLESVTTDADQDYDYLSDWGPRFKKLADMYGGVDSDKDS
- Test Method Notes: FACS, HEK293T-hCDH6-EC4 deletion cells
Measure Name: Max MFI (MFI)
Give bare numbers, in MFI.

Binder | Measure Name | Measurement
CHI-CDH6-1 (antibody, human IgG1, kappa, V domains shown, also called CHI-hCDH6-1; CH1-CDH6-1) VH: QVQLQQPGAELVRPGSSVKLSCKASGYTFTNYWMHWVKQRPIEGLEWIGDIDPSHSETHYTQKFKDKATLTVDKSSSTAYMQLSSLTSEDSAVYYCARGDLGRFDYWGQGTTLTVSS VL: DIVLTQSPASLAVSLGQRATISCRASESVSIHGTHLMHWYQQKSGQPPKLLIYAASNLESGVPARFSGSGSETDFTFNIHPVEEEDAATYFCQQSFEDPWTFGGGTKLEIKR | Max MFI | 30000

Give Max MFI for each listed item.
1. CHI-CDH6-4 (antibody, human IgG1, kappa, V domains shown, also called CH1-CDH6-4; chimeric antibody of murine CDH6-4) VH: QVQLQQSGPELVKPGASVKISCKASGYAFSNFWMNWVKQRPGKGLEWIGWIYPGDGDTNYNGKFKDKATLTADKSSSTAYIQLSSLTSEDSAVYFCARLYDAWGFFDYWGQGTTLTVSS VL: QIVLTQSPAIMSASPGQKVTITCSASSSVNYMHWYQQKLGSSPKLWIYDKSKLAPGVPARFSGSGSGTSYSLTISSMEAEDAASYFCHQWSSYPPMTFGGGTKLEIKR
2. CHI-CDH6-5 (antibody, human IgG1, kappa, V domains shown, also called CH1-CDH6-5; chimeric antibody of murine CDH6-5) VH: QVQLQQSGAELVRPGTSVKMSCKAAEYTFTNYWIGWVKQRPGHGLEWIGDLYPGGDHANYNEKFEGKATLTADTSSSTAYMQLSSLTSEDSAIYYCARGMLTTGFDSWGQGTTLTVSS VL: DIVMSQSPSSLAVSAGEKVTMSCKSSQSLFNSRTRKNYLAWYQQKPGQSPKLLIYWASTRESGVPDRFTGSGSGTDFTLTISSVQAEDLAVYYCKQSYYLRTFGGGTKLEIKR

Response given:
[22200, 18700]
